# SYSTEM_TESTED: PDE5A (Homo sapiens)
# Construct: purchased BPS Bioscience, San Diego, CA, USA
# TEST: Phosphodiesterase 5 HTRF cGMP assay
# Assay type: biochemical
# MEASUREMENT_SETUP: read-out: PDE5 % Inhibition at 10 μM
Each item that follows carries a reported inhibition at 10 µM.
READOUT_KIND: inhibition at 10 µM (%)

>>> numeric_value("c1coc(CNc2c3ccccc3nc3ccccc23)c1")
56.5
>>> numeric_value("Fc1ccccc1CNc1c2ccccc2nc2ccccc12")
57.5
>>> numeric_value("COc1cccc(CNc2c3ccccc3nc3ccccc23)c1OC")
36.7
>>> numeric_value("Clc1ccccc1CNc1c2ccccc2nc2ccccc12")
87.3
>>> numeric_value("Cc1cccc(CNc2c3ccccc3nc3ccccc23)c1")
59.3
>>> numeric_value("c1ccc(CNc2c3ccccc3nc3ccccc23)cc1")
52.2
>>> numeric_value("COc1ccc2nc3ccccc3c(NCc3ccc(F)cc3)c2c1")
64.2
>>> numeric_value("COc1ccc(CNc2c3ccccc3nc3ccccc23)cc1F")
79.2
>>> numeric_value("Fc1cccc(CNc2c3ccccc3nc3ccccc23)c1")
55.9
>>> numeric_value("Cc1ccccc1CNc1c2ccccc2nc2ccccc12")
50.4
>>> numeric_value("Cc1ccc(CNc2c3ccccc3nc3ccccc23)cc1")
74
>>> numeric_value("COc1ccc2nc3ccccc3c(NCc3ccc(C)cc3)c2c1")
88.1
>>> numeric_value("COc1ccc(CNc2c3ccccc3nc3ccccc23)cc1OC")
51.2
>>> numeric_value("COc1ccc(CNc2c3ccccc3nc3ccccc23)c(OC)c1")
60.2
>>> numeric_value("Cc1ccc2nc3ccccc3c(NCc3ccc(Cl)cc3)c2c1")
65.7
>>> numeric_value("COc1cccc(CNc2c3ccccc3nc3ccccc23)c1")
39.7
